B1: glmS ribozyme (parent)
chain: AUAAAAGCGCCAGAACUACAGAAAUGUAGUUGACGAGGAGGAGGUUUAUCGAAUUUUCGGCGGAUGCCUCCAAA

Variants of: B1
TEST METHOD NOTES: kcat; higher = faster cleavage; RNA array
PARTICULARS: with glucosamine-6-phosphate
Fewer inactive variants are shown than the library holds.
The following variants are listed with their measured kcat values.
Please reply with the bare figure in s⁻¹ and do not write the unit itself.

Illustrative cases are given below, each with its answer.
monomer_sequence="AUAAAAGCGCCAGAACUACAGAAAUGUAGUUGACGCGGAGGAGGUUUAUCGAAUUUUGGGCGGAUGCCUCCAAA [A36C C58G]" observed_value=2.16e-05
monomer_sequence="AUAAAAGCGCCAGAACUACAGAAAUGUAGUUGACGAGGAGGAGGUUUAUCGAUUUUUCGGCGGAUGACUCCAAA [A53U C67A]" observed_value=0.00367
monomer_sequence="AUAAAAGCGCCAGAACUACAGAAAUGUAGUUGACGAGGAAGAGGUUUAUCGAAUUUUCGGCGGAUACCUCCAAA [G40A G66A]" observed_value=0.00833
monomer_sequence="AUAAAAGCGCCAGAACUACAGAAAUGUAGUUGACGAGGAGGAGGUUUAGCGAAUGUUCGGCGGAUGCCUCCAAA [U49G U55G]" observed_value=0.000836
monomer_sequence="AUAAAAGCGCCAGAACUACAGAAAUGUAGUUGACGAGGAGGAGGUUUAUCGAAUCUGCGGCGGAUGCCUCCAAA [U55C U57G]" observed_value=3.92e-05
monomer_sequence="AUAAAAGCGCCAGAACUACAGAAAUGUAGUUGACGAGGAGGAGGUUUAUCGAAUUUUCGGCCGAUGCAUCCAAA [G62C C68A]" observed_value=1.29e-05
monomer_sequence="AUAAAAGCGCCAGAAUUACAGAAAUGUAGUUGACGAGGAGGAGGUUUAUCGAAUUUGCGGAGGAUGCCUCCAAA [C16U U57G C61A]" observed_value=1.37e-05
monomer_sequence="AUAAAAGCGCCAGAACUACAGAAAUGUAGUUGACGAGGAGUAGGUUUAUCGAAUUAUCGGCGGAUGCCUACAAA [G41U U56A C70A]" observed_value=0.0279

Ask | Provide measured kcat value, entry: AUAAAAGCGCCAGAACUACAGAAAUGUAGUUGACGAGGAGAAGGUUUAUCGAAUUUUCGGCGGAUGCCUUCAAA [G41A C70U]
Reply | 0.0433

Ask | Provide measured kcat value, entry: AUAAAAGCGCCAGAACUACAGAAAUGUAGUCGACGAGGAGGAGGUUUAUCGUAUUUUCGGCGGAUGCCUCCAAA [U31C A52U]
Reply | 7.02e-05

Ask | Provide measured kcat value, entry: AUAAAAGCGCCAGAACUACAGAAAUGUAGUUGACGAGGAGGAGGUUUAUCGAUCUUUCGGCGGAUGCCUCCAAA [A53U U54C]
Reply | 0.00788

Ask | Provide measured kcat value, entry: AUAAAAGCGCCAGAACUACAGAAAUGUAGUUGACGAGGAGGAGGAUUAUCGAAUUUUCGGCGGAUUCCUCCAAA [U45A G66U]
Reply | 0.00194

The measured values listed here are drawn from the supplement of paper PMC7125110.
